Assayed System: Acetylcholinesterase (Electrophorus electricus, UniProt O42275)
Sequence (O42275 whole entry): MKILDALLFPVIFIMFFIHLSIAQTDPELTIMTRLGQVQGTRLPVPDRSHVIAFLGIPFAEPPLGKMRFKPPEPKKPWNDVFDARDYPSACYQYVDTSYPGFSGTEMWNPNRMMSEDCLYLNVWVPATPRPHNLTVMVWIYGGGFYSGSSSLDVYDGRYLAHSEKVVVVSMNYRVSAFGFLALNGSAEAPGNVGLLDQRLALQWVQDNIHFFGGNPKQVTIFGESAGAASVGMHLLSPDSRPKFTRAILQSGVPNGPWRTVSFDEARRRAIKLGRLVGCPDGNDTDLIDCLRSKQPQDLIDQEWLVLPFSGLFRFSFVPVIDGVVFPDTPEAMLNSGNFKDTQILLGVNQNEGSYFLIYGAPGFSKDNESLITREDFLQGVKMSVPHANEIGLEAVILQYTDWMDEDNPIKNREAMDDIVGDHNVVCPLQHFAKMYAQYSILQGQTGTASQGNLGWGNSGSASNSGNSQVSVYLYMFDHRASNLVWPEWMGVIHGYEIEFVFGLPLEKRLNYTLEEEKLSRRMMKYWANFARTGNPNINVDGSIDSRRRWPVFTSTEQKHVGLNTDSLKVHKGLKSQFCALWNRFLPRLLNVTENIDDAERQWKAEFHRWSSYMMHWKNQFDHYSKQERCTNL
pIC50: −log10 of the molar value.

Record Smiles	pIC50
CCN(CCOc1ccc(C(C)=O)c(O)c1)Cc1ccccc1	4.72
CC(=O)c1ccc(OCCCCCCCCCN2CCN(Cc3ccccc3)CC2)cc1O	5.17
CC(=O)c1ccc(OCCCCCCCCCCN2CCC(c3ccccc3)CC2)cc1O	4.74
CC(=O)c1ccc(OCCCCCCCCCN2CCC(Cc3ccccc3)CC2)cc1O	5.07
CC(=O)c1ccc(OCCCN2CCc3ccccc3C2)cc1O	5.05
CCN(CCCCCCCCCCOc1ccc(C(C)=O)c(O)c1)Cc1ccccc1	5.19

====

Assayed System: Cholinesterase (Equus caballus, UniProt P81908)
Sequence (P81908 whole entry): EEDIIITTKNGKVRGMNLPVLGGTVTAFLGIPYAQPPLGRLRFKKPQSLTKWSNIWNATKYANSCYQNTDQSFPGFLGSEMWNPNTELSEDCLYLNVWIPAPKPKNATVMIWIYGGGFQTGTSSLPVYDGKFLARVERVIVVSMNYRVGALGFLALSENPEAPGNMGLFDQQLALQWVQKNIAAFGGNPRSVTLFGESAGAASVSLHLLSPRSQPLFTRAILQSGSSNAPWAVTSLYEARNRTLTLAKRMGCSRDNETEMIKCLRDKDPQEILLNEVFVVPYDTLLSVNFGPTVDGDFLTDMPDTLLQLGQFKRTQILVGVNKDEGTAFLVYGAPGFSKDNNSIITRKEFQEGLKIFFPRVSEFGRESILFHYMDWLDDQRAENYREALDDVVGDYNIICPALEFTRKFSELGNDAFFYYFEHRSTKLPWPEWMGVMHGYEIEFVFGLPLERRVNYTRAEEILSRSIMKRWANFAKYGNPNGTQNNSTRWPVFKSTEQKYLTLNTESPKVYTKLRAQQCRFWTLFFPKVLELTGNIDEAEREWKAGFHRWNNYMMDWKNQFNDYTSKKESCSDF
Test: Inhibition of equine serum BuChE using S-butyrylthiocholine chloride as substrate incubated for 15 mins by Ellman's method

Record Smiles	IC50 / µM
CCN(CCCCOc1ccc(C(C)=O)c(O)c1)Cc1ccccc1	34.6
CC(=O)c1ccc(OCCCN2CCC(Cc3ccccc3)CC2)cc1O	63.1
CC(=O)c1ccc(OCCCCCCN2CCC(Cc3ccccc3)CC2)cc1O	66.9
CC(=O)c1ccc(OCCCN2CCC(c3ccccc3)CC2)cc1O	29.4
CC(=O)c1ccc(OCCCCN2CCc3ccccc3C2)cc1O	47.5
CCN(CCCCCCCCCCOc1ccc(C(C)=O)c(O)c1)Cc1ccccc1	50.7
CC(=O)c1ccc(OCCCCCCCCCN2CCN(Cc3ccccc3)CC2)cc1O	19.8

====

Assayed System: Amine oxidase [flavin-containing] B (Homo sapiens)
Sequence (P27338 whole entry): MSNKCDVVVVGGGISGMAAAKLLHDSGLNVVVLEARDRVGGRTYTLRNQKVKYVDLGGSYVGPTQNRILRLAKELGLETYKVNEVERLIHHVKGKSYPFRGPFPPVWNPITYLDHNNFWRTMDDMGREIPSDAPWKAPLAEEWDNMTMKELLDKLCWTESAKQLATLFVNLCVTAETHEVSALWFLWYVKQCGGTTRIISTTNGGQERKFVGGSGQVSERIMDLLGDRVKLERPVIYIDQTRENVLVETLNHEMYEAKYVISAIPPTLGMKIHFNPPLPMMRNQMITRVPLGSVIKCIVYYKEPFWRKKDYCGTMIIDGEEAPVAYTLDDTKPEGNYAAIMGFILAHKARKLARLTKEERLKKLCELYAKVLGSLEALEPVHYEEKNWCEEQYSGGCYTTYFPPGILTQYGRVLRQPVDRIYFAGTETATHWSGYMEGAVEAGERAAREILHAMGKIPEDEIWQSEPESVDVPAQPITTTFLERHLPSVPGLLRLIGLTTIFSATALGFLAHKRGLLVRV
Test: Inhibition of human recombinant MAO-B using kynuramine as substrate measured after 30 mins by fluorimetric assay
pIC50: −log10 of the molar value.

Record Smiles	pIC50
CC(=O)c1ccc(OCCCCCCCCCCN2CCC(c3ccccc3)CC2)cc1O	4.85
COc1cc2c(cc1OC)CN(CCCCOc1ccc(C(C)=O)c(O)c1)CC2	4.80
CC(=O)c1ccc(OCCCCCCCCCCCCN2CCC(Cc3ccccc3)CC2)cc1O	4.59
CC(=O)c1ccc(OCCN2CCN(Cc3ccccc3)CC2)cc1O	4.99
CC(=O)c1ccc(OCCN2CCC(Cc3ccccc3)CC2)cc1O	4.64
CCN(CCCCCOc1ccc(C(C)=O)c(O)c1)Cc1ccccc1	4.53
CC(=O)c1ccc(OCCCCN2CCC(Cc3ccccc3)CC2)cc1O	4.87
CCN(CCCCOc1ccc(C(C)=O)c(O)c1)Cc1ccccc1	4.78
CCN(CC)CCCOc1ccc(C(C)=O)c(O)c1	4.79
CC(=O)c1ccc(OCCCCCCCCCCN2CCC(Cc3ccccc3)CC2)cc1O	4.67
CCN(CC)CCOc1ccc(C(C)=O)c(O)c1	4.93

====

Assayed System: Amine oxidase [flavin-containing] B (Homo sapiens)
Test: Inhibition of human recombinant MAO-B using kynuramine as substrate measured after 30 mins by fluorimetric assay
Reported Endpoint: IC50 (µM)

Record Smiles	Assayed System	Reported Endpoint	Observed Measurement
CC(=O)c1ccc(OCCCCCCCCCN2CCN(Cc3ccccc3)CC2)cc1O	Amine oxidase [flavin-containing] B (Homo sapiens)	IC50	21.6
CC(=O)c1ccc(OCCCCCCN2CCc3ccccc3C2)cc1O	Amine oxidase [flavin-containing] B (Homo sapiens)	IC50	26.9
CCN(CCCCCCCCCCCCOc1ccc(C(C)=O)c(O)c1)Cc1ccccc1	Amine oxidase [flavin-containing] B (Homo sapiens)	IC50	33.1
CCN(CC)CCCCCCOc1ccc(C(C)=O)c(O)c1	Amine oxidase [flavin-containing] B (Homo sapiens)	IC50	22.1
CC(=O)c1ccc(OCCCCCCCCCN2CCc3ccccc3C2)cc1O	Amine oxidase [flavin-containing] B (Homo sapiens)	IC50	19.4
CC(=O)c1ccc(OCCCN2CCc3ccccc3C2)cc1O	Amine oxidase [flavin-containing] B (Homo sapiens)	IC50	16.7
CC(=O)c1ccc(OCCCCCN2CCc3ccccc3C2)cc1O	Amine oxidase [flavin-containing] B (Homo sapiens)	IC50	15.2
CC(=O)c1ccc(OCCCCCCCCCN2CCC(Cc3ccccc3)CC2)cc1O	Amine oxidase [flavin-containing] B (Homo sapiens)	IC50	27.9
CCN(CCCOc1ccc(C(C)=O)c(O)c1)Cc1ccccc1	Amine oxidase [flavin-containing] B (Homo sapiens)	IC50	14.9
CC(=O)c1ccc(OCCCCCCN2CCC(Cc3ccccc3)CC2)cc1O	Amine oxidase [flavin-containing] B (Homo sapiens)	IC50	15.8
CCN(CCOc1ccc(C(C)=O)c(O)c1)Cc1ccccc1	Amine oxidase [flavin-containing] B (Homo sapiens)	IC50	13.8
CC(=O)c1ccc(OCCCCN2CCc3ccccc3C2)cc1O	Amine oxidase [flavin-containing] B (Homo sapiens)	IC50	12.8
CCN(CC)CCCCOc1ccc(C(C)=O)c(O)c1	Amine oxidase [flavin-containing] B (Homo sapiens)	IC50	22.2
CC(=O)c1ccc(OCCCN2CCC(c3ccccc3)CC2)cc1O	Amine oxidase [flavin-containing] B (Homo sapiens)	IC50	19.8
CC(=O)c1ccc(OCCCCCCCCCCN2CCN(Cc3ccccc3)CC2)cc1O	Amine oxidase [flavin-containing] B (Homo sapiens)	IC50	17.3
CC(=O)c1ccc(OCCCN2CCC(Cc3ccccc3)CC2)cc1O	Amine oxidase [flavin-containing] B (Homo sapiens)	IC50	18.7
CCN(CCCCCCCCCCOc1ccc(C(C)=O)c(O)c1)Cc1ccccc1	Amine oxidase [flavin-containing] B (Homo sapiens)	IC50	23.4
CC(=O)c1ccc(OCCCCCN2CCC(Cc3ccccc3)CC2)cc1O	Amine oxidase [flavin-containing] B (Homo sapiens)	IC50	20.8
COc1cc2c(cc1OC)CN(CCCOc1ccc(C(C)=O)c(O)c1)CC2	Amine oxidase [flavin-containing] B (Homo sapiens)	IC50	13.8

====

# key: entry, value: IC50
Assayed System: Acetylcholinesterase (Electrophorus electricus, UniProt O42275)

Record Smiles	Assayed System	IC50 / µM
CC(=O)c1ccc(OCCCN2CCC(Cc3ccccc3)CC2)cc1O	Acetylcholinesterase (Electrophorus electricus, UniProt O42275)	11.7
CCN(CCCCCCCCCCCCOc1ccc(C(C)=O)c(O)c1)Cc1ccccc1	Acetylcholinesterase (Electrophorus electricus, UniProt O42275)	7.7
CC(=O)c1ccc(OCCCCCN2CCc3ccccc3C2)cc1O	Acetylcholinesterase (Electrophorus electricus, UniProt O42275)	7.5
CC(=O)c1ccc(OCCCCCN2CCC(Cc3ccccc3)CC2)cc1O	Acetylcholinesterase (Electrophorus electricus, UniProt O42275)	8.2
CCN(CC)CCCCCCOc1ccc(C(C)=O)c(O)c1	Acetylcholinesterase (Electrophorus electricus, UniProt O42275)	16.3
CC(=O)c1ccc(OCCCCCCCCCN2CCc3ccccc3C2)cc1O	Acetylcholinesterase (Electrophorus electricus, UniProt O42275)	11.6
CCN(CC)CCOc1ccc(C(C)=O)c(O)c1	Acetylcholinesterase (Electrophorus electricus, UniProt O42275)	35.2
CCN(CCCOc1ccc(C(C)=O)c(O)c1)Cc1ccccc1	Acetylcholinesterase (Electrophorus electricus, UniProt O42275)	7.2
CC(=O)c1ccc(OCCCCN2CCc3ccccc3C2)cc1O	Acetylcholinesterase (Electrophorus electricus, UniProt O42275)	5.9
COc1cc2c(cc1OC)CN(CCCCOc1ccc(C(C)=O)c(O)c1)CC2	Acetylcholinesterase (Electrophorus electricus, UniProt O42275)	15.9
CC(=O)c1ccc(OCCCCCCCCCCN2CCN(Cc3ccccc3)CC2)cc1O	Acetylcholinesterase (Electrophorus electricus, UniProt O42275)	6.9
CC(=O)c1ccc(OCCCCCCN2CCc3ccccc3C2)cc1O	Acetylcholinesterase (Electrophorus electricus, UniProt O42275)	9.2
CC(=O)c1ccc(OCCCCCCN2CCC(Cc3ccccc3)CC2)cc1O	Acetylcholinesterase (Electrophorus electricus, UniProt O42275)	7.1
COc1cc2c(cc1OC)CN(CCCOc1ccc(C(C)=O)c(O)c1)CC2	Acetylcholinesterase (Electrophorus electricus, UniProt O42275)	10.1
CC(=O)c1ccc(OCCCN2CCC(c3ccccc3)CC2)cc1O	Acetylcholinesterase (Electrophorus electricus, UniProt O42275)	13.4
CC(=O)c1ccc(OCCCCCCCCCCCCN2CCC(Cc3ccccc3)CC2)cc1O	Acetylcholinesterase (Electrophorus electricus, UniProt O42275)	9.5
CC(=O)c1ccc(OCCN2CCN(Cc3ccccc3)CC2)cc1O	Acetylcholinesterase (Electrophorus electricus, UniProt O42275)	6.6
CC(=O)c1ccc(OCCN2CCC(Cc3ccccc3)CC2)cc1O	Acetylcholinesterase (Electrophorus electricus, UniProt O42275)	16.5
CCN(CC)CCCOc1ccc(C(C)=O)c(O)c1	Acetylcholinesterase (Electrophorus electricus, UniProt O42275)	26.7
CC(=O)c1ccc(OCCCCCCCCCCN2CCC(Cc3ccccc3)CC2)cc1O	Acetylcholinesterase (Electrophorus electricus, UniProt O42275)	9.2
CCN(CCCCOc1ccc(C(C)=O)c(O)c1)Cc1ccccc1	Acetylcholinesterase (Electrophorus electricus, UniProt O42275)	2.9
CCN(CCCCCOc1ccc(C(C)=O)c(O)c1)Cc1ccccc1	Acetylcholinesterase (Electrophorus electricus, UniProt O42275)	5.2
CC(=O)c1ccc(OCCCCN2CCC(Cc3ccccc3)CC2)cc1O	Acetylcholinesterase (Electrophorus electricus, UniProt O42275)	8.9
CCN(CC)CCCCOc1ccc(C(C)=O)c(O)c1	Acetylcholinesterase (Electrophorus electricus, UniProt O42275)	20.9
